Attribution: patent US12491170B2

Consider the following compounds and their measured Treprostinil Concentration 60 min readings.
assay: Stability in liver microsomes, rat
metricName: Treprostinil Concentration 60 min (µM)

compound	metricName	measurement
CCCCCC(CCC1C(O)CC2Cc3c(cccc3OCC(=O)O)CC21)OC(=O)CC (stereo not shown) [Prodrug LV]	Treprostinil Concentration 60 min	0.586
CCCCCC(CCC1C(OC(=O)CC)CC2Cc3c(cccc3OCC(=O)O)CC21)OC(=O)CC (stereo not shown) [Prodrug LXX, treprostinil dipropionate]	Treprostinil Concentration 60 min	0.653
CCCCCC(CCC1C(O)CC2Cc3c(cccc3OCC(=O)O)CC21)OP(=O)(O)O (stereo not shown) [Prodrug VI]	Treprostinil Concentration 60 min	0.53
CCCCCC(CCC1C(O)CC2Cc3c(cccc3OCC(=O)O)CC21)OC(C)=O (stereo not shown) [Prodrug XLIII]	Treprostinil Concentration 60 min	0.145

====

Experiment: Hydrolysis of prodrugs to treprostinil at pH 6, 7, 8 and 40 C
Type: physicochemical
Conditions: pH 8, 40 C., 3 weeks
From the text: Tables 24, 25 and 26 present data for hydrolysis of selected treprostinil prodrugs at pH 6, 7 and 8, respectively, and 40 C.
metricName: Hydrolysis to treprostinil, % Area, t = 3 weeks (% Area)

molecule	measurementUnits	measurement
CCCCCC(CCC1C(O)CC2Cc3c(cccc3OCC(=O)O)CC21)OC(=O)C12CC3CC(CC(C3)C1)C2 (stereo not shown) [Prodrug LXIX]	% Area	0.00
CCCCCC(CCC1C(O)CC2Cc3c(cccc3OCC(=O)O)CC21)OC(=O)COc1ccccc1 (stereo not shown) [Prodrug LXV]	% Area	16.9
CCCCCC(CCC1C(O)CC2Cc3c(cccc3OCC(=O)O)CC21)OC(=O)C(C)C (stereo not shown) [Prodrug LXVII]	% Area	0.27
CCCCCC(CCC1C(O)CC2Cc3c(cccc3OCC(=O)O)CC21)OC(=O)COc1ccc(OC(F)(F)F)cc1 (stereo not shown) [Prodrug LXIV]	% Area	5.8

====

Consider the following compounds and their measured Trep Concentration 60 min readings.
assay: Stability in liver microsomes, rat

compound	Trep Concentration 60 min [µM]
CCCCCC(CCC1C(O)CC2Cc3c(cccc3OCC(=O)O)CC21)OCOC(=O)C(C)(C)C (stereo not shown)	0.802
CCCCCC(CCC1C(O)CC2Cc3c(cccc3OCC(=O)O)CC21)OC(=O)COc1ccccc1 (stereo not shown)	0.738
CCCCCC(CCC1C(O)CC2Cc3c(cccc3OCC(=O)O)CC21)OC(=O)C(C)(C)C (stereo not shown)	0.0074
CCCCCC(CCC1C(O)CC2Cc3c(cccc3OCC(=O)O)CC21)OC(=O)NCC(=O)O (stereo not shown)	0
CCCCCC(CCC1C(O)CC2Cc3c(cccc3OCC(=O)O)CC21)OC(=O)N1CCCCC1 (stereo not shown)	0
CCCCCC(CCC1C(O)CC2Cc3c(cccc3OCC(=O)O)CC21)OC(=O)CN (stereo not shown)	0.196
CCCCCC(CCC1C(O)CC2Cc3c(cccc3OCC(=O)O)CC21)OC(=O)NCCO (stereo not shown)	0

====

test: Stability in cryopreserved hepatocytes, human
Consider the following compounds and their measured Trep Concentration (μM) 15 min readings.

compound	Trep Concentration (μM) 15 min, µM
CCCCCC(CCC1C(O)CC2Cc3c(cccc3OCC(=O)O)CC21)OC(=O)COc1ccc(OC(F)(F)F)cc1 (centres unmarked)	0.521
CCCCCC(CCC1C(O)CC2Cc3c(cccc3OCC(=O)O)CC21)OCc1oc(=O)oc1C (centres unmarked)	0.647
CCCCCC(CCC1C(O)CC2Cc3c(cccc3OCC(=O)O)CC21)OC(=O)c1cccc(O)c1 (centres unmarked)	0.0671
CCCCCC(CCC1C(O)CC2Cc3c(cccc3OCC(=O)O)CC21)OC(=O)CC (centres unmarked)	0.725
CCCCCC(CCC1C(O)CC2Cc3c(cccc3OCC(=O)O)CC21)OC(C)=O (centres unmarked)	0.573
CCCCCC(CCC1C(O)CC2Cc3c(cccc3OCC(=O)O)CC21)OC(=O)c1ccc(C(F)(F)F)cc1 (centres unmarked)	0.0881
CCCCCC(CCC1C(O)CC2Cc3c(cccc3OCC(=O)O)CC21)OC(=O)NCCO (centres unmarked)	0
CCCCCC1CCC2C(CC3Cc4c(cccc4OCC(=O)O)CC32)OP(=O)(Oc2ccccc2)O1 (mixture of isomers)	0
